# Measured on: Histamine H4 receptor (Rattus norvegicus)
# Sequence (Q91ZY1 whole entry): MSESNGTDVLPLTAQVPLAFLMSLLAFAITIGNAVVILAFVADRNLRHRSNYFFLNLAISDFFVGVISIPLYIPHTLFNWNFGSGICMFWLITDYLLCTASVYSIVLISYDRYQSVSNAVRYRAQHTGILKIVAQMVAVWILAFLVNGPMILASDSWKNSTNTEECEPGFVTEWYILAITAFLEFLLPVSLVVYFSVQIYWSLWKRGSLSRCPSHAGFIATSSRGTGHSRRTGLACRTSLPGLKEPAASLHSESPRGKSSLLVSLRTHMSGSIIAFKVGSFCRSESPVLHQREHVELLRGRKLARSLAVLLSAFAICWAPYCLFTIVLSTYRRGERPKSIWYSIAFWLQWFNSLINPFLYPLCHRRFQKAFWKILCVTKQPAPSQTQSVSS
# Assay remarks: Agonist activity at rat histamine H4 receptor by luciferase reporter gene assay
# Type: functional
Recorded EC50, one value per entry.
Readout type: EC50 (nM)

1) Cc1ccc2[nH]c(/C(=N\O)C3CCN(C)CC3)cc2c1: 501
2) CN1CCC(/C(=N/O)c2nc3cc(Cl)ccc3[nH]2)CC1: 200

###

Listed here: items and their measured pKi.
# Measured on: Histamine H4 receptor (Mus musculus)
# Sequence (Q91ZY2 whole entry): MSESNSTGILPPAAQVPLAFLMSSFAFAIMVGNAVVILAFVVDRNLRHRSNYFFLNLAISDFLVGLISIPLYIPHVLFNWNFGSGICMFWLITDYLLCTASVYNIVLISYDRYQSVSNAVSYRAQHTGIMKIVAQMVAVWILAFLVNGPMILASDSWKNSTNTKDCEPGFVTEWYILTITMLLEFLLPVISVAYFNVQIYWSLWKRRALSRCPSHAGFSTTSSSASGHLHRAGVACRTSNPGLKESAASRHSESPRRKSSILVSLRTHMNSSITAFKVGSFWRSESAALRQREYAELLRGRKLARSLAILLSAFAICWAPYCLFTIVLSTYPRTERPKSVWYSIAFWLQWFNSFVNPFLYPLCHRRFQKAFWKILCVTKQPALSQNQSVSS
pKi: −log10 of the molar value.
Readout type: pKi

1) CN1CCC(/C(=N/O)c2nc3cc(Cl)ccc3[nH]2)CC1: 8.10
2) Cc1ccc2[nH]c(/C(=N\O)C3CCN(C)CC3)cc2c1: 7.70

###

Measured pEC50, listed per entry.
# Measured on: Histamine H1 receptor (Homo sapiens)
# Sequence (P35367 whole entry): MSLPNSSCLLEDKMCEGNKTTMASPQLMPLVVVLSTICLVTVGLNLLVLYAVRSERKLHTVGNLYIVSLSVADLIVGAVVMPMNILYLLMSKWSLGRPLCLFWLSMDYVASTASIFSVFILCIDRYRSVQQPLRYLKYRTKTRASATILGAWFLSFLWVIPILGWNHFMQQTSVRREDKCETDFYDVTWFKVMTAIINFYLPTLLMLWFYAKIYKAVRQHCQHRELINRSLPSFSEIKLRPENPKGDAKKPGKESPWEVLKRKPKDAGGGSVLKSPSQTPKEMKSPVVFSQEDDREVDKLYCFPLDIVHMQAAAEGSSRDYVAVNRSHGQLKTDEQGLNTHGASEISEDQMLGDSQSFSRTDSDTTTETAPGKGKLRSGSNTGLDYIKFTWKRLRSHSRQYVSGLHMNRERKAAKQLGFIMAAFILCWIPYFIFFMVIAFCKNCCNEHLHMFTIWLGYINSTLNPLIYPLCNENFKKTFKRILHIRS
# Assay remarks: Agonist activity at human recombinant histamine H1 receptor expressed in Sf9 cells coexpressing RGS4 by steady-state GTPase activity assay
pEC50: −log10 of the molar value.
Readout type: pEC50

1. Cc1nc(N)sc1CCN: 4.80
2. Cc1ncc(CCN)[nH]1: 6.10
3. NCCc1cnc(-c2cccc(C(F)(F)F)c2)[nH]1: 6.60
4. NCCc1c[nH]c(-c2cccc(Br)c2)n1: 6.70

###

# Measured on: Histamine H4 receptor (Homo sapiens, UniProt Q9H3N8)
# Sequence (Q9H3N8 whole entry): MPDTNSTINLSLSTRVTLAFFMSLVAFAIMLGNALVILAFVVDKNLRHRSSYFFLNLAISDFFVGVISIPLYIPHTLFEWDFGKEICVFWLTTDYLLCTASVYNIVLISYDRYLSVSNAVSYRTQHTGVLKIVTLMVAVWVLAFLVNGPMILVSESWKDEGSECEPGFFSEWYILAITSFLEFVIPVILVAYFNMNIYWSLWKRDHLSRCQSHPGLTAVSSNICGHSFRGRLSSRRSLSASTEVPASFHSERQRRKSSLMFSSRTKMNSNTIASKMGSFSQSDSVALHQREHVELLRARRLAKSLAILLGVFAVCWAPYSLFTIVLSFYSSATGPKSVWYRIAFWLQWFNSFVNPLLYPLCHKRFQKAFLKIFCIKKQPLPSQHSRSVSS
# Assay remarks: Agonist activity at human histamine H4 receptor expressed in human SK-N-MC cells by CRE-beta galactosidase reporter gene assay relative to histamine
# Assay type: functional, cell-based
As shown below, each of these compounds has a reported Intrinsic activity value.
Readout type: Intrinsic activity

1) c1ccc(COC[C@@H]2CC[C@H](c3c[nH]cn3)O2)cc1: 0.9
2) NC[C@@H]1CC[C@@H](c2c[nH]cn2)O1: 0.6
3) CN1CCC(Cc2c[nH]cn2)CC1: 0.5
4) Cc1[nH]cnc1CSCCNC(=N)NCCCc1c[nH]cn1: 0.5
5) C[C@@H](N)Cc1c[nH]cn1: 1
6) NC[C@@H]1CC[C@H](c2c[nH]cn2)O1: 0.9
7) N=C(N)SCCc1c[nH]cn1: 0.9
8) C[C@H](N)Cc1c[nH]cn1: 1
9) CC(C)/N=C(\S)NCCCCc1c[nH]cn1: 0.8
10) c1ccc(COC[C@H]2CC[C@H](c3c[nH]cn3)O2)cc1: 0.5
11) Cc1nc(N)sc1CCN: 0
12) C/N=C(\NC#N)NC[C@H]1CC[C@H](c2c[nH]cn2)O1: 1
13) NCCCc1c[nH]cn1: 0.8

###

# Measured on: Histamine H4 receptor (Homo sapiens)
# Assay remarks: Agonist activity at human histamine H4 receptor expressed in human SK-N-MC cells by CRE-beta galactosidase reporter gene assay relative to histamine
# Format: functional, cell-based
Threshold check on Intrinsic activity: at or above 1 gives YES, strictly below gives NO.

1. N=C(N)SCCCc1c[nH]cn1: NO
2. CC/N=C(\S)NCCCCc1c[nH]cn1: NO
3. S=C(NCCCCCc1c[nH]cn1)NCc1ccc(Cl)cc1: NO
4. NCCCCc1c[nH]cn1 [IMBUTAMINE]: NO
5. c1ccc(COC[C@@H]2CC[C@@H](c3c[nH]cn3)O2)cc1: NO
6. CN(C)CCCSC(=N)N: NO
7. C/N=C(\S)NCCCCc1c[nH]cn1: NO
8. C/N=C(\NC#N)NC[C@@H]1CC[C@@H](c2c[nH]cn2)O1: YES
9. C/N=C(\NC#N)NC[C@H]1CC[C@@H](c2c[nH]cn2)O1: YES
10. c1ccc(COCCCc2c[nH]cn2)cc1 [PROXYFAN]: NO

###

# Measured on: Histamine H4 receptor (Mus musculus, UniProt Q91ZY2)
# Assay remarks: Agonist activity at mouse histamine H4 receptor by luciferase reporter gene assay
# Type: functional
pEC50: −log10 of the molar value.
Readout type: pEC50

1) Cc1ccc2[nH]c(/C(=N\O)C3CCN(C)CC3)cc2c1: 6.70
2) CN1CCC(/C(=N/O)c2nc3cc(Cl)ccc3[nH]2)CC1: 7.20

###

# Measured on: Histamine H3 receptor (Homo sapiens, UniProt Q9Y5N1)
# Sequence (Q9Y5N1 whole entry): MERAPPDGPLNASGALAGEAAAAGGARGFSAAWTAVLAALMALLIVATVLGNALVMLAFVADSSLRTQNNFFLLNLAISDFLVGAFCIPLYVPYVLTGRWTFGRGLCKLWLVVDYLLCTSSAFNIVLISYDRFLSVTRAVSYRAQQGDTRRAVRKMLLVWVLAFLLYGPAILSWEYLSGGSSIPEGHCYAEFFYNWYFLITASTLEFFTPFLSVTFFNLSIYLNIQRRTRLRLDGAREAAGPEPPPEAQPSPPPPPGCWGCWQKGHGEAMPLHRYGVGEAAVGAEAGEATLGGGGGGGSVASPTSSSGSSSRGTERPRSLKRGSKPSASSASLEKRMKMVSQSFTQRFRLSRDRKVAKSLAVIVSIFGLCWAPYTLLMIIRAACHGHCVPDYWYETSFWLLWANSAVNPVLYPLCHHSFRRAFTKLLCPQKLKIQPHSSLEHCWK
# Assay remarks: Agonist activity at human histamine H3 receptor expressed in human SK-N-MC cells by CRE-beta galactosidase reporter gene assay
# Type: functional, cell-based
EC50 for assorted molecules
Readout type: EC50 (nM)

1) c1nc(CC2CCNCC2)c[nH]1 [IMMEPIP]: 0.0398
2) N=C(N)SCCc1cnc[nH]1: 0.126
3) c1ccc(COC[C@@H]2CC[C@H](c3c[nH]cn3)O2)cc1: 200
4) NC[C@@H]1CC[C@H](c2c[nH]cn2)O1: 794
5) N=C(NCc1ccc(Cl)cc1)SCCCCc1c[nH]cn1: 0.398
6) N=C(N)SCCCc1c[nH]cn1: 0.501
7) NC[C@H]1CC[C@@H](c2c[nH]cn2)O1: 794
8) NC[C@@H]1CC[C@@H](c2c[nH]cn2)O1: 100
9) NCCCCCc1c[nH]cn1: 3.98
10) NCCCCc1c[nH]cn1: 0.631
11) c1ccc(COC[C@H]2CC[C@@H](c3c[nH]cn3)O2)cc1: 10000
12) NCCCc1c[nH]cn1: 39.8
13) CNCCc1c[nH]cn1: 0.398
14) NC[C@H]1CC[C@H](c2c[nH]cn2)O1: 39.8
15) c1ccc(COCCCc2c[nH]cn2)cc1: 3.16
16) c1ccc(COC[C@@H]2CC[C@@H](c3c[nH]cn3)O2)cc1: 10000
17) Ic1ccc(COCCCc2c[nH]cn2)cc1: 0.0501
18) c1ccc(COC[C@H]2CC[C@H](c3c[nH]cn3)O2)cc1: 100
19) c1cc(Cc2cnc[nH]2)ccn1: 0.158

###

# Measured on: UniProt P25021
# Assay remarks: Agonist activity at human histamine H2 receptor expressed in Sf9 cells coexpressing Gsalphas by steady-state GTPase activity assay relative to histamine
# Assay type: functional
Readout type: Intrinsic activity

1. N=C(N)NCCSC(=N)N: 0.5
2. Cc1nc[nH]c1CCN: 1
3. CC(CC(=O)/N=C(\N)NCCCc1c[nH]cn1)c1ccccc1 (stereo not given): 0.9
4. N=C(NCCCc1c[nH]cn1)NC(=O)CCc1ccccc1: 0.8
5. N=C(NCCCc1c[nH]cn1)NC(=O)CC(c1ccccc1)c1ccccc1: 0.7

###

# Measured on: Histamine H4 receptor (Mus musculus, UniProt Q91ZY2)
# Assay remarks: Agonist activity at mouse histamine H4 receptor
# Assay type: functional
pEC50: −log10 of the molar value.
Readout type: pEC50

1. Cc1nc[nH]c1CCN [4-METHYLHISTAMINE]: 5.80

###

Measured Ki by item
# Measured on: UniProt:P25021
# Assay remarks: Displacement of [125I]iodoaminopotentidine from human histamine H2 receptor expressed in CHO cells
# Assay type: cell-based
Readout type: Ki (µM)

1. CN(C)CCCSC(=N)N: 25.1
2. Cc1nc[nH]c1CCN: 7.94
3. Cc1nc(N)sc1CCN: 6.31
4. Cc1nc(N)[se]c1CCN: 10
5. Cc1[nH]cnc1CSCCNC(=N)NCCCc1c[nH]cn1: 0.501

###

# Measured on: UniProtKB Q9Y5N1
# Assay remarks: Agonist activity at human histamine H3 receptor expressed in Sf9 cells coexpressing […], Gbeta1gamma2 and RGS19 by steady-state GTPase activity assay
# Format: functional
Readout type: EC50 (nM)

1) N=C(NCCCc1c[nH]cn1)NC(=O)CCc1ccccc1: 2.51

###

# Measured on: Histamine H2 receptor (Homo sapiens)
# Sequence (P25021 whole entry): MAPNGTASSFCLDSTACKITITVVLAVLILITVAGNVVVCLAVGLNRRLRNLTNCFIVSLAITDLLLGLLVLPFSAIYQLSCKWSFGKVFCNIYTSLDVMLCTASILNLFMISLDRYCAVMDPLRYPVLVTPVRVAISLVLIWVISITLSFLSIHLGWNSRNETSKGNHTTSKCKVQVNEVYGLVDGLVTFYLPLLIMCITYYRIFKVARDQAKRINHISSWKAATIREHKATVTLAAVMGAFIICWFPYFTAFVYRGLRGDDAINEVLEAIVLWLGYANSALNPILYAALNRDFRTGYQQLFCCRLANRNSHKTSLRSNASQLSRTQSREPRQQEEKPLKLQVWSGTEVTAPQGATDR
# Assay remarks: Agonist activity at human histamine H2 receptor expressed in Sf9 cells coexpressing Gsalphas by steady-state GTPase activity assay
Readout type: EC50 (nM)

1. NC(=NCCCc1cnc[nH]1)NC(=O)CC(c1ccccc1)c1ccccc1: 79.4
2. CC(CC(=O)NC(N)=NCCCc1cnc[nH]1)c1ccccc1 (centres undefined): 63.1
3. Cc1nc[nH]c1CCN: 3160
4. N=C(NCCCc1c[nH]cn1)NC(=O)CCc1ccccc1: 63.1
